study-target: recombinant human NK3 receptor (Homo sapiens, UniProt P29371)
Sequence (P29371 1-465): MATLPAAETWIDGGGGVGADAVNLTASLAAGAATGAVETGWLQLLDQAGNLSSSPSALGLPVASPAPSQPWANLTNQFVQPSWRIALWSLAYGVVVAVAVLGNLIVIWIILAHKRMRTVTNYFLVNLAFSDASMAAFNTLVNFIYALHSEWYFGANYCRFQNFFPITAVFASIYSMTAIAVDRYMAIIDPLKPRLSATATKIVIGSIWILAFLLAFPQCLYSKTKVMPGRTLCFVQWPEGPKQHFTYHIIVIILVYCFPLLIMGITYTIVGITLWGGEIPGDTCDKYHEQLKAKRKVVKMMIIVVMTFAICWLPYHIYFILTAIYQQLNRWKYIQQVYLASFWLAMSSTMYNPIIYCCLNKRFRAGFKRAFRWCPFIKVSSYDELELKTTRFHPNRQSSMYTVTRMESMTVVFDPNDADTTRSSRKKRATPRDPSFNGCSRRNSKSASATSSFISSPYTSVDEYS
experimental-protocol: [3H]SR142801 competition binding assay
experimental-parameters: membrane from HEK293 cells transiently expressing recombinant human NK3 receptor; radioligand [3H]SR142801; 75 min at RT
Method: [^3H]SR142801 Competition Binding Assay hNK3 receptor binding experiment were performed using [^3H]SR142801 (Catalog No. TRK1035, specific activity: 74.0 Ci/mmol, Amersham, GE Healthcare UK limited, Buckinghamshire, UK) and membrane isolated from HEK293 cells transiently expressing recombinant human NK3 receptor. […] Nonspecific binding was measured in the presence of 10 μM SB222200 for both radioligands. […]
pKi: −log10 of the molar value.
property-label: pKi

I. COc1cc2nc(N3CCC(Cc4ccccc4)(C(=O)NCc4ccccc4)CC3)nc(O)c2cc1F
II. COc1cc2nc(N3CCC(Cc4ccccc4)(C(=O)NCC4CCC4)CC3)nc(O)c2cc1OC
III. COc1cc2nc(N3CCC(Cc4ccccc4)(C(=O)NC4CCc5ccccc5C4O)CC3)nc(O)c2cc1OC (stereo not drawn)
stdin: Order the entries by their reported pKi, beginning at the minimum. Response format: the labels, sorted as the prompt asks.
stdout: III, II, I
(III: 7.08, II: 7.32, I: 8.03)

###

study-target: recombinant human NK3 receptor (Homo sapiens)
experimental-protocol: [3H]SR142801 competition binding assay
experimental-parameters: membrane from HEK293 cells transiently expressing recombinant human NK3 receptor; radioligand [3H]SR142801; 75 min at RT
pKi: −log10 of the molar value.
property-label: pKi

# annotated cases, reported pKi shown
stdin: I have this molecule here, COc1cc2nc(N3CCC(Cc4ccccc4)(C(=O)Nc4cnn(C)c4)CC3)nc(O)c2cc1OC [Example 59] , and I need its recorded pKi.
stdout: 7.41

stdin: Next: COc1cc2nc(N3CCC(Cc4ccccc4)(C(=O)N4CCCC4c4ccccc4)CC3)nc(N)c2cc1OC (stereo not drawn) [Example 47]
stdout: 7.33

stdin: Next: COc1cc2nc(N3CCC(CC(C)C)(C(=O)NCc4ccccc4)CC3)nc(N)c2cc1OC [Example 70]
stdout: 7.19

stdin: Next: COc1cc2nc(N3CCC(Cc4ccccc4)(C(=O)NCc4ccccc4)CC3)nc(O)c2cc1OC(C)C [Example 91]
stdout: 8.27

I. COc1cc2nc(N3CCC(Cc4ccccc4)(C(=O)NCc4ccccc4)CC3)nc(O)c2cc1OC [Example 17]
II. COc1cc2nc(N3CCC(CC4CC4)(C(=O)NCc4ccccc4)CC3)nc(O)c2cc1OC [Example 72]
stdin: Field: lower pKi | Options: I / II Selection: enter the item's label.
stdout: II

1. COc1cc2nc(N3CCC(Cc4ccccc4)(C(=O)NC4CCc5ccccc54)CC3)nc(N)c2cc1OC (stereo not drawn) [Example 44]
2. COc1cc2nc(N3CCC(Cc4ccccc4)(C(=O)NCc4ccccc4)CC3)nc(O)c2cc1C#N [Example 97]
stdin: Field: lower pKi | Options: 1 / 2 Selection: enter the item's label.
stdout: 2

I. COc1cc2nc(N3CCC(Cc4ccccc4)(C(=O)NCc4ccc(Cl)c(Cl)c4)CC3)nc(N)c2cc1OC [Example 28]
II. COc1cc2nc(N3CCC(CC4CCC4)(C(=O)NC4Cc5ccccc5C4)CC3)nc(O)c2cc1OC [Example 79]
stdin: Which has the higher pKi, I or II ? Selection: enter the item's label.
stdout: I
